Recorded values, source ChEMBL document CHEMBL1143008.

Each entry below carries its recorded Activity.
- System: Mus musculus
- methodNotes: Antinociceptive effect in Swiss Albino mouse assessed as licking latency at 10 mg/kg, sc after 15 mins by hotplate test
- Type: functional
- runParameters: route subcutaneous
Reply numerically in s, unit not repeated.

Example results:
sampleSmiles: Cc1cccc(C)c1NC(=O)[C@@H](N)C(C)C
Activity, s: 15.8
--
sampleSmiles: Cc1cccc(C)c1N(C)C(=O)[C@@H](N)C(C)C
Activity, s: 13.6
--
sampleSmiles: Cc1cccc(C)c1NC(=O)[C@H](N)C(C)C
Activity, s: 30.3
--
sampleSmiles: Cc1cccc(C)c1NC(=O)[C@H](N)CC(C)C
Activity, s: 20.7
--
sampleSmiles: Cc1ccccc1NC(=O)[C@@H](C)N
Activity, s: 17.1

compound Cc1cccc(C)c1NC(=O)[C@@H](N)CC(C)C , Activity observed: 21.3
